Target: ER (Homo sapiens, UniProt P03372)
Construct: endogenous in cells; probably T47D or MCF-7
Experiment: In-cell Western (ICW) ER degradation assay in MCF-7 cells
Format: cell-based
Conditions: MCF7, read-out: ER MCF7 ICW Dmax (%)
MEASURED QUANTITY: Dmax

MOLECULE: C[C@@H]1Cc2c(ccc3[nH]ncc23)[C@@H](c2ccc(N3CCC4(CC3)CC(CN3CCC5(CC3)COc3cc6c(cc35)CN([C@H]3CCC(=O)NC3=O)C6=O)C4)cn2)N1CC1(F)CC1 [Compound A5]
MEASURED QUANTITY: Dmax
MEASUREMENT: 50 to 75%
--
MOLECULE: C[C@@H]1Cc2c(ccc3[nH]ncc23)[C@H](c2ccc(N3CCC4(CC3)CC(CN3CCN5c6ccc7c(c6OC[C@H]5C3)CN([C@H]3CCC(=O)NC3=O)C7=O)CO4)nc2)N1CC(F)(F)F (stereo partly drawn) [Compound A21]
MEASURED QUANTITY: Dmax
MEASUREMENT: > 75%
--
MOLECULE: C[C@@H]1Cc2c(ccc3[nH]ncc23)[C@@H](c2ccc(N3CC4(CCC(CN5CCN6c7ccc8c(c7OC[C@H]6C5)CN([C@H]5CCC(=O)NC5=O)C8=O)CC4)C3)nc2)N1CC(F)(F)F [Compound A17]
MEASURED QUANTITY: Dmax
MEASUREMENT: > 75%
